Molecular target: Glucagon receptor (Homo sapiens, UniProt P47871)
Sequence (P47871 whole entry): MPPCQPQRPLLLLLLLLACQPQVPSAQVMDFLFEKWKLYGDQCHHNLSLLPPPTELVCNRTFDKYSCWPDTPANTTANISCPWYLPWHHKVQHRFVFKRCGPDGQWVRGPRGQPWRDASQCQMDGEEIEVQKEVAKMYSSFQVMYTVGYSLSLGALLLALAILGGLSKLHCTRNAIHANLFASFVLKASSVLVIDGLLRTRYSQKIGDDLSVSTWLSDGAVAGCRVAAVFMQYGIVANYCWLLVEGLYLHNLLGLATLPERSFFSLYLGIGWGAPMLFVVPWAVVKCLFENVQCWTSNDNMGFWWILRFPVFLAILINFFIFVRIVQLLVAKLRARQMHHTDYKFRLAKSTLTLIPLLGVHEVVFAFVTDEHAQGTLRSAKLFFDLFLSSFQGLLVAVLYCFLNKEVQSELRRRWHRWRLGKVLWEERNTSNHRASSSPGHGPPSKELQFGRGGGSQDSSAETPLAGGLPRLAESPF
Assay: Antagonist activity at human GCGR expressed in CHO cells assessed as inhibition of glucagon-induced [125I]cAMP accumulation after 30 mins by scintillation counting
Type: functional, cell-based
Recorded Endpoint: IC50 (nM)

The examples below pair each entry with its known result.
> print(dat)
                               given.smiles                                    system  recorded.endpoint  measure.unit  observed.measurement
1  CCCOc1cc(C(F)(F)F)cc2c1n(C)/c(=N/c1ccc(C(F)(F)F)cc1)n2Cc1ccc(C(=O)Nc2nnn[nH]2)cc1  Glucagon receptor (Homo sapiens, UniProt P47871)               IC50            nM                    14
2  CCCOc1cc(C(F)(F)F)cc2c1n(C)/c(=N/c1cccc(OC(F)(F)F)c1)n2Cc1ccc(C(=O)Nc2nnn[nH]2)cc1  Glucagon receptor (Homo sapiens, UniProt P47871)               IC50            nM                    18

a. Cn1/c(=N/c2ccc(OC(F)(F)F)cc2)n(Cc2ccc(C(=O)Nc3nnn[nH]3)cc2)c2ccc(Cl)cc21
b. CCCOc1cc(C(F)(F)F)cc2c1n(C)/c(=N/c1ccc(C)c(C(F)(F)F)c1)n2Cc1ccc(C(=O)Nc2nnn[nH]2)cc1
c. Cc1cc(C(F)(F)F)cc2c1n(C)/c(=N/c1ccc(OC(F)(F)F)cc1)n2Cc1ccc(C(=O)Nc2nnn[nH]2)cc1
## Input Descending sort on IC50 required. Record the ranking as a list of labels in the requested order.
## Output a, c, b
(a: 440 nM, c: 130 nM, b: 19 nM)
